test: LogP measurement by HPLC on reversed phase columns (EEC directive 79/831 Annex V.A8); type: physicochemical; conditions: method [b]: LC-UV, neutral range, 0.001 molar ammonium acetate solution in water and acetonitrile as eluent
Catalogue of chromatographic logP readings, one per entry.

| CHEM_SMILES | chromatographic logP |
| --- | --- |
| CCN(C)C=Nc1cc(C)c(Oc2ccnc(Sc3ccccc3)n2)cc1C | 4.55 |
| CCCSc1nccc(Oc2cc(C)c(N=CN(C)CC)cc2C)n1 | 4.61 |
| CCSc1nccc(Oc2cc(C)c(N=CN(C)CC)cc2C)n1 | 4.12 |
| CCN(C)C=Nc1cc(Br)c(Oc2ccnc(C(C)(C)C)n2)cc1C | 4.93 |
| CCN(C)C=Nc1cc(C#N)c(Oc2ccnc(C(C)(C)C)n2)cc1C | 4.29 |
| CCN(C)C=Nc1cc(C)c(Oc2ccnc(OC3CCCC3)n2)cc1C | 4.67 |
| CCN(C)C=Nc1cc(C)c(Oc2ccnc(SCc3ccccc3)n2)cc1C | 4.82 |
